- target: T1, human IL-23 (human, UniProt Q9NPF7 20-189; P29460 23-328)
- T1 construct: also called hIL-23; human recombinant IL-23
- T1 sequence (looked up) 1: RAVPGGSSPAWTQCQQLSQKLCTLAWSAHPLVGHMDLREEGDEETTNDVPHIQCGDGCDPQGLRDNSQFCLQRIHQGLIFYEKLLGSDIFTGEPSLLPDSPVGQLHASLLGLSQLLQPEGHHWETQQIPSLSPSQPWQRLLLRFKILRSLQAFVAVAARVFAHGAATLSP
- T1 sequence (looked up) 2: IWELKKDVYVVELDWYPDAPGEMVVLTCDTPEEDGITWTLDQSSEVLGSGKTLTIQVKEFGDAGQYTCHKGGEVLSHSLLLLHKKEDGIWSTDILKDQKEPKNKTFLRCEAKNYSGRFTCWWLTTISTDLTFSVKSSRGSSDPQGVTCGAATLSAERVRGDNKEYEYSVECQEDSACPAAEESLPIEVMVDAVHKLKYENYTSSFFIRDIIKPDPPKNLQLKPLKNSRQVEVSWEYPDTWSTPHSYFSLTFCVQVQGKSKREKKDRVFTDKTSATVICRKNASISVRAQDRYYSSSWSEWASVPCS
- assay.name: SPR, Adnectin captured by anti-His mAb, IL-23 injected
Kd under 2 nM gets criterion met, anything at or over 2 nM gets criterion not met.

INSERT INTO results (binder, category_label) VALUES
  ('1486D04 (designed binder, captured by anti-His mAb) MGVSDVPRDLEVVAATPTSLLISWGHYPLHIRYYRITYGETGGNSPVQEFTVPRSTHTATISGLKPGVDYTITVYAVTYYNEADYSQIPISINYRTEIDKPSQHHHHHH', 'criterion not met'),
  ('1490C07 (designed binder, captured by anti-His mAb) MGVSDVPRDLEVVAATPTSLLISWGHYPLHVRYYRITYGETGGNSPVQEFTVPSNRYTATISGLKPGVDYTITVYAVTYYNEADYSQIPISINYRTEIDKPSQHHHHHH', 'criterion not met'),
  ('1490G02 (designed binder, captured by anti-His mAb) MGVSDVPRDLEVVAATPTSLLISWGHYPMHVRYYRITYGETGGNSPVQEFTVPPRYHTATISGLKPGVDYTITVYAVTYYMEEKYAVIPISINYRTEIDKPSQHHHHHH', 'criterion met'),
  ('1486B05 (designed binder, captured by anti-His mAb) MGVSDVPRDLEVVAATPTSLLISWGHYPMHVRYYRITYGETGGNSPVQEFTVPSRIYTATISGLKPGVDYTITVYAVTYYNEADYSQIPISINYRTEIDKPSQHHHHHH', 'criterion not met'),
  ('1490H05 (designed binder, captured by anti-His mAb) MGVSDVPRDLEVVAATPTSLLISWGHYPLHVRYYRITYGETGGNSPVQEFTVPMRQHTATISGLKPGVDYTITVYAVTYYAQENYKEIPISINYRTEIDKPSQHHHHHH', 'criterion not met'),
  ('1486D05 (designed binder, captured by anti-His mAb) MGVSDVPRDLEVVAATPTSLLISWGHYPLHVRYYRITYGETGGNSPVQEFTVPHQRYTATISGLKPGVDYTITVYAVTYYNEADYSQIPISINYRTEIDKPSQHHHHHH', 'criterion not met'),
  ('1572F05 (designed binder, captured by anti-His mAb) MGVSDVPRDLEVVAATPTSLLISWGHYPLHIRYYRITYGETGGNSPVQEFTVPRQKYTATISGLKPGVDYTITVYAVTYYNEADYSQIPISINYRTEIDKPSQHHHHHH', 'criterion not met'),
  ('1550 E03 (designed binder, captured by anti-His mAb) MGVSDVPRDLEVVAATPTSLLISWGHYPLHIRYYRITYGETGGNSPVQEFTVPRMRHTATISGLKPGVDYTITVYAVTYYSEELYKYIPISINYRTEIDKPSQHHHHHH', 'criterion met');
